Source of measurements: paper PMC4336329

target: human ether-à-go-go-related gene (hERG) potassium channel (human, UniProt Q12809); experiment: primary screen, population patch clamp on CHO cells stably expressing hERG; higher = less effect of the substance;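 also: peak tail current of the secondary pulse compared with the same well before compound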
Sequence (Q12809 whole entry, looked up): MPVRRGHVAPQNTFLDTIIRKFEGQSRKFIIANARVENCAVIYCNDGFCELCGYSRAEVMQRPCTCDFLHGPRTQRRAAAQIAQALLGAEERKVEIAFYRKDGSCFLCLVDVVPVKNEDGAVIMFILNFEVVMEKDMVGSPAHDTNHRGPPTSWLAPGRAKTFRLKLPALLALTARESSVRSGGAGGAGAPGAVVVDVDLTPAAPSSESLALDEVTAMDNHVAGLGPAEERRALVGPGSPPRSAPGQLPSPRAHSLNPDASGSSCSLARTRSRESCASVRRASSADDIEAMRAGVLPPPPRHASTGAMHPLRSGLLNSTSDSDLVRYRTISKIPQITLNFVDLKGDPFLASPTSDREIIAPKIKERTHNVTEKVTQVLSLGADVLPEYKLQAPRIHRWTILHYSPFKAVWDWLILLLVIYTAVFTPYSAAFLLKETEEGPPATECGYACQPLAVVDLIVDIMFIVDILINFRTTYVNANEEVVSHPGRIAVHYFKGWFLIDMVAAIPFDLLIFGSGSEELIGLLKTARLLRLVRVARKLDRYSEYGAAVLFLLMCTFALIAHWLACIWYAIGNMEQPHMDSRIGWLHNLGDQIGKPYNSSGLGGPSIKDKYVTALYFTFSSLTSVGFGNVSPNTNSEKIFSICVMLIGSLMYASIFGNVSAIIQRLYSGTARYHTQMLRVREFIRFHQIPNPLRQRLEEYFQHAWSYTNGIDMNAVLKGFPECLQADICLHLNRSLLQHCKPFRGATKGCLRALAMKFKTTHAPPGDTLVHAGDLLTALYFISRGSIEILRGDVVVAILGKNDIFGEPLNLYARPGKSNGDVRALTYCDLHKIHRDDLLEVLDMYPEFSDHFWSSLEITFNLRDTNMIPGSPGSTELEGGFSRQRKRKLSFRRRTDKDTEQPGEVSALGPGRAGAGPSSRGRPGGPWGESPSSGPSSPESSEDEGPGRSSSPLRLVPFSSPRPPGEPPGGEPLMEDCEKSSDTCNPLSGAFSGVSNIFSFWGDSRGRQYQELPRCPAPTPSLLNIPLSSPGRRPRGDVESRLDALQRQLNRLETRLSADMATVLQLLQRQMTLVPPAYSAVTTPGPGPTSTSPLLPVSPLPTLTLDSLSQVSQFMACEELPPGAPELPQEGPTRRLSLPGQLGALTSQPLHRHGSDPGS
Out of some 310,000 compounds screened, about 14,000 (4.5%) showed an effect of 50% or more. The effect is printed as a negative number. This is one part of a sample in which strong results are shown more often than they occur.
Each record here notes measured hERG current change (%, negative = inhibition) at 10uM.
// return numeric value only (unit: %, not printed)

Guide cases for hERG current change (%, negative = inhibition) at 10uM, answers given:
CSc1ccc(/C=C/C(=O)N2CCCN(C)CC2)cc1.Cl :: -26.6
COc1cccc(C2c3[nH]c4ccccc4c3CCN2Cc2ncc[nH]2)c1 (stereo not shown) :: -49.4
CN1CCN(C(=O)/C=C/c2ccc([N+](=O)[O-])cc2)CC1 :: -67

Prompt line: So what does the record say about hERG current change (%, negative = inhibition) at 10uM for `O=C(Cn1ncc2c3ccccc3n(Cc3ccccc3)c2c1=O)NCCCN1CCCC1=O` ?
Response line: -29.8

====

target: human ether-à-go-go-related gene (hERG) potassium channel (human, UniProt Q12809); assay: primary screen, population patch clamp on CHO cells stably expressing hERG; higher = less effect of the substance;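 also: peak tail current of the secondary pulse compared with the same well before compound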
The whole screen tested about 310,000 compounds, of which about 14,000 (4.5%) showed an effect of 50% or more. Effects have a minus sign here. Only a selection was taken, and strong results are over-represented in it overall.
Assay Metric: hERG current change (%, negative = inhibition) at 10uM (%)
// return numeric value only (unit: %, not printed)

Guide cases for hERG current change (%, negative = inhibition) at 10uM, answers given:
COC(=O)c1ccccc1NC(=O)CC(NCc1ccccc1)C(=O)O (stereo not shown) :: -20.7
O=C(NCc1nnc2c3ccccc3c(-c3ccccc3)nn12)c1ccccc1Cl :: -78.9
COC(=O)/C(=N/Nc1ccccc1C)Sc1nnc(C(O)c2ccccc2)n1-c1ccccc1 (stereo not shown) :: 13.3
Cc1cccc(C)c1NC(=O)CNC(=O)C1CCCC1 :: 2.19
CN(C(=O)c1cccc(Cl)c1)C1CCCN(Cc2ccccc2F)C1 (stereo not shown) :: 0.373

Prompt line: Form field: hERG current change (%, negative = inhibition) at 10uM recorded for `O=C(CSc1nnc(CNC(=O)c2ccccc2)o1)c1ccc(Cl)cc1` with human ether-à-go-go-related gene (hERG) potassium channel (human, UniProt Q12809) (enter value)
Response line: -30.3

Prompt line: Form field: hERG current change (%, negative = inhibition) at 10uM recorded for `CCOC(=O)Cn1c(=NC(=O)c2cccs2)sc2cc(C(=O)OC)ccc21` with human ether-à-go-go-related gene (hERG) potassium channel (human, UniProt Q12809) (enter value)
Response line: 17.4

Prompt line: Form field: hERG current change (%, negative = inhibition) at 10uM recorded for Cc1ccc(CN2CCN(Cc3cn(C)nc3C)CC2CCO)o1 (stereo not shown) with human ether-à-go-go-related gene (hERG) potassium channel (human, UniProt Q12809) (enter value)
Response line: 12.4

Prompt line: Form field: hERG current change (%, negative = inhibition) at 10uM recorded for `COC(=O)c1ccc(COc2ccccc2/C=C(\C#N)C(=O)Nc2ccc(C)cc2C)cc1` with human ether-à-go-go-related gene (hERG) potassium channel (human, UniProt Q12809) (enter value)
Response line: -11.1

Prompt line: Form field: hERG current change (%, negative = inhibition) at 10uM recorded for `Cc1cc(OCCOCCN2CCCC2)ccc1C(C)C` with human ether-à-go-go-related gene (hERG) potassium channel (human, UniProt Q12809) (enter value)
Response line: -53.9

Prompt line: Form field: hERG current change (%, negative = inhibition) at 10uM recorded for CCOC(=O)C(O)(c1ccc(NC(=S)NC(=O)c2ccc(Cl)cc2Cl)c(C)c1)C(F)(F)F (stereo not shown) with human ether-à-go-go-related gene (hERG) potassium channel (human, UniProt Q12809) (enter value)
Response line: 27.4

Prompt line: Form field: hERG current change (%, negative = inhibition) at 10uM recorded for `CC(=O)NCc1nnc2c3ccccc3c(-c3ccccc3)nn12` with human ether-à-go-go-related gene (hERG) potassium channel (human, UniProt Q12809) (enter value)
Response line: -31.9

Prompt line: Form field: hERG current change (%, negative = inhibition) at 10uM recorded for `CCOC(=O)N1CCN(CC(=O)Nc2cc3c(cc2C(C)=O)OCO3)CC1` with human ether-à-go-go-related gene (hERG) potassium channel (human, UniProt Q12809) (enter value)
Response line: -1.3

Prompt line: Form field: hERG current change (%, negative = inhibition) at 10uM recorded for `CC(C)Oc1ccc(C(=O)CCN2CCCCC2)cc1` with human ether-à-go-go-related gene (hERG) potassium channel (human, UniProt Q12809) (enter value)
Response line: -20.9

Prompt line: Form field: hERG current change (%, negative = inhibition) at 10uM recorded for `Cc1c(C(=O)N2CCCCC2)nn(-c2ccc(Cl)cc2)c(=O)c1C#N` with human ether-à-go-go-related gene (hERG) potassium channel (human, UniProt Q12809) (enter value)
Response line: -17.5

Prompt line: Form field: hERG current change (%, negative = inhibition) at 10uM recorded for `O=C(CN1C(=O)NC2(CCCCCCC2)C1=O)NCc1cccs1` with human ether-à-go-go-related gene (hERG) potassium channel (human, UniProt Q12809) (enter value)
Response line: 7.8

Prompt line: Form field: hERG current change (%, negative = inhibition) at 10uM recorded for Cc1cccc(N(C(=O)Cn2nnc3ccccc32)C(C(=O)NC(C)(C)C)c2ccsc2)c1C (stereo not shown) with human ether-à-go-go-related gene (hERG) potassium channel (human, UniProt Q12809) (enter value)
Response line: 19.7

Prompt line: Form field: hERG current change (%, negative = inhibition) at 10uM recorded for `COc1ccc2nc(/C=N/NC(=O)CCCCCNC(=O)OC(C)(C)C)ccc2c1` with human ether-à-go-go-related gene (hERG) potassium channel (human, UniProt Q12809) (enter value)
Response line: -0.0758

Prompt line: Form field: hERG current change (%, negative = inhibition) at 10uM recorded for `NC(=S)Nc1cc(Cl)cc(Cl)c1` with human ether-à-go-go-related gene (hERG) potassium channel (human, UniProt Q12809) (enter value)
Response line: 17.1

Prompt line: Form field: hERG current change (%, negative = inhibition) at 10uM recorded for `COc1ccc(CNC(=O)Cn2nc(Cc3cccnc3)c3ccccc3c2=O)cc1` with human ether-à-go-go-related gene (hERG) potassium channel (human, UniProt Q12809) (enter value)
Response line: -43.3

Prompt line: Form field: hERG current change (%, negative = inhibition) at 10uM recorded for `Clc1ccc(OCCCCN2CCCCC2)cc1.O=C(O)C(=O)O` with human ether-à-go-go-related gene (hERG) potassium channel (human, UniProt Q12809) (enter value)
Response line: -65.5

Prompt line: Form field: hERG current change (%, negative = inhibition) at 10uM recorded for `COc1ccccc1-c1csc(NC(=O)c2cc(-c3cccs3)nc3ccccc23)n1` with human ether-à-go-go-related gene (hERG) potassium channel (human, UniProt Q12809) (enter value)
Response line: 8.88

Prompt line: Form field: hERG current change (%, negative = inhibition) at 10uM recorded for `CC(=O)Nc1ccc(S(=O)(=O)NCc2ccccn2)cc1` with human ether-à-go-go-related gene (hERG) potassium channel (human, UniProt Q12809) (enter value)
Response line: 9.6

Prompt line: Form field: hERG current change (%, negative = inhibition) at 10uM recorded for COC(=O)c1[nH]c(C)c(/C(O)=C2\C(=O)C(=O)N(CCN(C)C)C2c2ccccc2OC)c1C (stereo not shown) with human ether-à-go-go-related gene (hERG) potassium channel (human, UniProt Q12809) (enter value)
Response line: 15.3

Prompt line: Form field: hERG current change (%, negative = inhibition) at 10uM recorded for `CCOc1ccc(OCCCCN2CCCC2)cc1.O=C(O)C(=O)O` with human ether-à-go-go-related gene (hERG) potassium channel (human, UniProt Q12809) (enter value)
Response line: -12.2

====

target: human ether-à-go-go-related gene (hERG) potassium channel (human, UniProt Q12809); test: primary screen, population patch clamp on CHO cells stably expressing hERG; higher = less effect of the substance;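 also: peak tail current of the secondary pulse compared with the same well before compound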
The whole screen tested about 310,000 compounds, of which about 14,000 (4.5%) showed an effect of 50% or more. The effect is printed as a negative number. Shown is part of a subset that was picked to be rich in strong results.
Respond with criterion met for hERG current change (%, negative = inhibition) at 10uM values of -20% and above, criterion not met for values below.

Prompt line: hERG current change (%, negative = inhibition) at 10uM >= -20% for `O=C(CN1CCN(c2ccc(F)cc2)CC1)Nc1ccccc1Br` ?
Response line: criterion met

Prompt line: hERG current change (%, negative = inhibition) at 10uM >= -20% for `O=C(CN1C(=O)c2ccccc2S1(=O)=O)c1ccc(OC(F)F)cc1` ?
Response line: criterion not met

Prompt line: hERG current change (%, negative = inhibition) at 10uM >= -20% for `COc1cc(/C=C2\C(=O)ON=C2c2ccccc2)cc(Cl)c1O` ?
Response line: criterion not met

Prompt line: hERG current change (%, negative = inhibition) at 10uM >= -20% for `COc1ccc(C(=O)N/C(=C\c2ccccc2)C(=O)NCc2cccnc2)cc1` ?
Response line: criterion not met

Prompt line: hERG current change (%, negative = inhibition) at 10uM >= -20% for `N#CC[C@H](Cc1ccccc1)N1CCN(CCc2ccccc2)CCC1=O` ?
Response line: criterion met
